Test system: SK-MEL-2 melanoma
Assay: NCI-60 one-dose screen, 48 h
Conditions: 10 µM unless noted
The panel holds about 83,000 compounds, 20% with a hit somewhere; the sample as a whole holds those more often. Calls of active or inactive are those of the source. How the source made its calls: active means growth percent below 10; inactive means the rest.
Return exactly one item of active, inactive

Exam item: Answer briefly: the call reported for `CCOC(=O)c1c2c(n3ccc(C)cc13)C(=O)c1ccccc1C2=O` in this assay.
Marked response: inactive

Exam item: And `N#C/C(=C\c1ccc2ccccc2c1)c1cc2ccccc2[nH]1` ?
Marked response: inactive

Exam item: Next: `O=[N+]([O-])/C(=C/C=C/c1ccccc1)c1ccccc1`
Marked response: inactive

Exam item: Next: OCCCC1CCN(C(Cc2ccccc2)c2ccccc2)CC1 (stereo not given)
Marked response: inactive

Exam item: What would you report for `Cc1ccc(Cl)cc1Nc1nc(C(F)(F)F)ccc1C(=O)N/N=C/c1cccnc1` ?
Marked response: active

Exam item: Follow-up entry: `Cc1nnc(-n2c(O)cc(=O)n(-c3ccccc3)c2=S)nc1/C=C/c1ccc(N(C)C)cc1`
Marked response: inactive

Exam item: Moving on to the next compound: `CC(=O)Cc1nsc(NC(=O)c2cc(-c3cc(Cl)cc(Cl)c3)oc2C)n1`
Marked response: inactive

Exam item: Moving on to the next compound: `COP(=O)(OC)C(C)(C)CC(=O)CC(C#N)(C#N)C(C#N)C#N`
Marked response: inactive

Exam item: // repeat for `CC(C)OC(=O)c1ccc2[nH]c(O)c(C(=Nc3ccc(N(C)C(=O)CN4CCN(C)CC4)cc3)c3ccccc3)c2c1` and report
Marked response: active

Exam item: Request: `O=C1/C(=C/c2ccc(F)cc2)COc2ccc(O)cc21`
Marked response: inactive

The measurements presented in this section are drawn from PubChem BioAssay (NCI).
